Origin of the recorded values: patent US20250313625A1

Reported EC50 is given for each of the following binders.
target.or.system: T1, human LAG3, full length, stably expressed on cells (human, UniProt P18627 23-525)
T1 construct: whole, on cells; also called CHOK1-human LAG3
T1 sequence (looked up): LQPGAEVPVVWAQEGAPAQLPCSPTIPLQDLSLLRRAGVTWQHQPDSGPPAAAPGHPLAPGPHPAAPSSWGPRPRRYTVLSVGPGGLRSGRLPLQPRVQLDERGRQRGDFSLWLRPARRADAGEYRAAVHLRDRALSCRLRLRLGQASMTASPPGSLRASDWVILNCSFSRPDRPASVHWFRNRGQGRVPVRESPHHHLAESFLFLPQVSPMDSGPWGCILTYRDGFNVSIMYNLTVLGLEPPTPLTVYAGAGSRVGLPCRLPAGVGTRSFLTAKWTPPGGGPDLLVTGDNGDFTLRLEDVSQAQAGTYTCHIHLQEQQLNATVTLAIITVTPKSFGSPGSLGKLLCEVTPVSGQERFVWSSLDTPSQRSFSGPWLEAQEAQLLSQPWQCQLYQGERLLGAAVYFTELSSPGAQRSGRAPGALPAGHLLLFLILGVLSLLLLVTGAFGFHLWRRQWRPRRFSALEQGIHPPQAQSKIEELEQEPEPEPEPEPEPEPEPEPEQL
protocol.description: FACS on 293F-human LAG3 cells
Description: Briefly the antibodies were incubated with 2×10⁵ target cells at 4° C. for 1 hour. After washing, fluorescence labeled anti-mouse IgG 2nd antibody (Life Technologies) was added and incubated at 4° C. for 1 hour. Geometric median fluorescence intensity (MFI) was detected and EC₅₀ was calculated using GraphPad Prism9.0.

Take a look at these entries with their results.
[[record]]
binder = "Antibody 023 (antibody, V domains shown, mouse hybridoma antibody) VH: QIQLVQSGPVLKKPGETVKISCKASGYTFTESPMNWVKQAPGRGFKWMGMIYTDTGEPTYAEEFKGRFAFSLETSASTAYLQINNLKSEDTATYFCVSDYGSILYWYFDVWGTGTTVTVSS VL: DIVMTQSHKFMSTSVGDRVSITCKASQDVSTAVAWYQQTPGQSPKLLIYSASYRYTGVPDRFTGSGSGTDFTFTISSVQAEDLAVYYCQQHYNSPPTFGAGTKLELK"
metric = "EC50"
obs_value = "2.65 nM"

[[record]]
binder = "Antibody 027 (antibody, V domains shown, mouse hybridoma antibody) VH: EVKILQSGGGLVQPGGSLKLSCAASGIDFSRYWMSWVRRTPGKGLEWIGEINPDSSTINYAPSLKDKFIISRDNAKNTLYLQMSKVRSEDTALYYCARLGIIPTYHYGSSGYYYAMDYWGQGTSVTVSS VL: DVLMTQTPLSLPVSLGDRASISCRSSQTIVHGNGHTSLEWYLQKPGQSPQLLIYKVSNRFSGVPDRFSASGSGTDFTLTISRVEAEDLGVYYCFQVSHVPYTFGGGTKLEIK"
metric = "EC50"
obs_value = "2.38 nM"


Kindly note the recorded EC50 for Antibody 057 (antibody, V domains shown, mouse hybridoma antibody) VH: QVQLQQSGAELARPGASVKLSCKASGFSFTSYGINWVKQRTGQGLEWIGEIYPRSGNTYYNEKLKGEATLTADRSSSTAYMELRSLTSEDSAVYFCARGGTYDGYYYAMDYWGQGTSVTVSS VL: NIVLTQSPASLAVSLGQRATISCRASESVDNFGSSFMHWYQQKPGQAPKLLIYRASNLESGIPARFGGSGSGTDFTLTIDPVETDDVATYYCQQVNKDPRTFGGGTKLEIK , which is 1.04 nM
